test: Tmax in Sprague-Dawley rat at 1 mg/kg, iv administered as single dose measured for 24 hrs by LC-MS/MS analysis; assay type: ADME, organism-based; conditions: in vivo
REPORTED PROPERTY: Tmax

In plain terms, CCc1cc2c(cc1N1CCN(C(=O)CNc3cccc4c3C(=O)N(C3CCC(=O)NC3=O)C4=O)CC1)C(C)(C)c1[nH]c3cc(C#N)ccc3c1C2=O (stereo unspecified) has a documented Tmax of 1.8 min

----------
test: Cmax in Sprague-Dawley rat at 1 mg/kg, iv administered as single dose measured for 24 hrs by LC-MS/MS analysis; format: ADME, organism-based; set-up: time 24 hrs, dose 1 mg/kg, route iv; conditions: in vivo
REPORTED PROPERTY: Cmax (ng/mL)
One number for each entry, in ng/mL.

In plain terms, CCc1cc2c(cc1N1CCN(C(=O)CNc3cccc4c3C(=O)N(C3CCC(=O)NC3=O)C4=O)CC1)C(C)(C)c1[nH]c3cc(C#N)ccc3c1C2=O (stereo unspecified) has a documented Cmax of 994
